targetSystem: GlcNAc(b1-6)GalNAc
experimentSummary: glycan array binding signal (z-score within array); higher = stronger binding
studyConditions: glycan notation: IUPAC condensed, linker removed
Only a selection was taken, and the strongest signals are over-represented in it overall.
Recorded glycan array binding signal (z-score), one value per entry.
readoutKind: glycan array binding signal (z-score)

Gal 3C (Homo sapiens), P17931 (protein) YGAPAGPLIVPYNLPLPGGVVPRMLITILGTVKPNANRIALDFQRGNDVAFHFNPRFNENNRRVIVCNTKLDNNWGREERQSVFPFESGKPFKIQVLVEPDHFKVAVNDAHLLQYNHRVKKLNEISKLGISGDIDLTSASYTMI : -0.322
DC-ASGPR Long (Homo sapiens) (protein) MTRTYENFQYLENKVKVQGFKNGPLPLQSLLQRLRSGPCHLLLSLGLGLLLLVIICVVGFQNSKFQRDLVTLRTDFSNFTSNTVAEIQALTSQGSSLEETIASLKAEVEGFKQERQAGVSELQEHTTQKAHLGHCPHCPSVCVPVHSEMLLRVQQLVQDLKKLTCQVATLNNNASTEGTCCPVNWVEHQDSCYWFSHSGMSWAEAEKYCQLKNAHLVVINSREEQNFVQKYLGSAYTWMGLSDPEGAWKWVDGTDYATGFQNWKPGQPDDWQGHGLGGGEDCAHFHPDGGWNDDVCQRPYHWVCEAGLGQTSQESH : 3.43
